- Tgt: TDP-43 RRM1 (human, UniProt Q13148 101-191)
- Sequence (Q13148 101-191): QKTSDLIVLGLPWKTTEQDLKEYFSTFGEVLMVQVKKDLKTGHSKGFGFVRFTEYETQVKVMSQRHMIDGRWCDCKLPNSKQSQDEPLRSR
- Test details: fluorescence polarization
pKd: −log10 of the molar value.

Binder: UGUGUGUGUGUG (ssRNA) [(UG)6 RNA]
pKd: 7.24
